systemUnderTest: RNA construct containing CUG repeats (RNA hairpin 1; SEQ ID NO:1)
assayInfo: MicroScale Thermophoresis (MST) fluorescence binding assay, RNA hairpin 1
experimentalSetup: RNA hairpin 1 (CUG repeats), MST, 25° C.; read-out: KD of binding
resultType: pKd
Value format note: pKd is -log10 of concentration (mol/L); just state the number.

The compound identified as O=c1sn(-c2cccc3ccccc23)c(=O)n1Cc1ccccc1 [Tideglusib] registered its pKd at 7.71

---

systemUnderTest: RNA construct containing CUG repeats with interspersed interrupting non CUG repeats (RNA hairpin 3; SEQ ID NO:3)
assayInfo: MicroScale Thermophoresis (MST) fluorescence binding assay, RNA hairpin 3
experimentalSetup: RNA hairpin 3, interspersed non CUG repeats (CCG and CUC); read-out: potency of binding
resultType: Kd (µM)
Entry rule: numbers only, all in µM.

The compound identified as `O=c1sn(-c2cccc3ccccc23)c(=O)n1Cc1ccccc1` registered its Kd at 3.2
